Assay: Half life in rat liver microsomes
Type: ADME, Microsome
Experimental readout: half-life (min)
Write the answer as a number in min, unit excluded.

As a guide, the following entries are already answered.
CC(=O)c1c(Cl)c(C(=O)NOCCO)c(Nc2ccc(I)cc2F)n1C : 6
CC(=O)c1c(F)c(C(=O)NOC[C@H](O)CO)c(Nc2ccc(I)cc2F)n1C : 28
CC(=O)c1cc(C(=O)N2CC[C@@H](O)C2)c(Nc2ccc(I)cc2F)n1C : 9
CC(=O)c1cc(C(=O)NOC[C@@H](O)CO)c(Nc2ccc(I)cc2F)n1C : 68
CC(=O)c1cc(C(=O)N2CC(O)C2)c(Nc2ccc(I)cc2F)n1C : 13

Which half-life is reported for this molecule? `CC(=O)c1c(Cl)c(C(=O)NOC[C@@H](O)CO)c(Nc2ccc(I)cc2F)n1C` 30

Which half-life is reported for this molecule? `CC(=O)c1cc(C(=O)NCCCO)c(Nc2ccc(I)cc2F)n1C` 10

Which half-life is reported for this molecule? `CC(=O)c1cc(C(=O)O)c(Nc2ccc(I)cc2F)n1C` 7

Which half-life is reported for this molecule? `CC(=O)c1cc(C(=O)NOCCO)c(Nc2ccc(I)cc2F)n1C` 14

Which half-life is reported for this molecule? `CC(=O)n1cc(C(=O)NOCCO)c(Nc2ccc(I)cc2F)c1C` 2

Which half-life is reported for this molecule? `CC(=O)c1c(Cl)c(C(=O)NOC[C@H](O)CO)c(Nc2ccc(I)cc2F)n1C` 23

Which half-life is reported for this molecule? `CC(=O)n1cc(Nc2ccc(I)cc2F)c(C(=O)O)c1` 20

Which half-life is reported for this molecule? `CC(=O)c1cc(C(=O)NOC[C@H](O)CO)c(Nc2ccc(I)cc2F)n1C` 29

Which half-life is reported for this molecule? `CC(=O)c1cc(C(=O)NOC(CO)CO)c(Nc2ccc(I)cc2F)n1C` 16

Which half-life is reported for this molecule? `CC(=O)c1cc(C(=O)N2CC(N)C2)c(Nc2ccc(I)cc2F)n1C` 64

---

Target: Dual specificity mitogen-activated protein kinase kinase 1 (Homo sapiens)
Sequence (Q02750 whole entry): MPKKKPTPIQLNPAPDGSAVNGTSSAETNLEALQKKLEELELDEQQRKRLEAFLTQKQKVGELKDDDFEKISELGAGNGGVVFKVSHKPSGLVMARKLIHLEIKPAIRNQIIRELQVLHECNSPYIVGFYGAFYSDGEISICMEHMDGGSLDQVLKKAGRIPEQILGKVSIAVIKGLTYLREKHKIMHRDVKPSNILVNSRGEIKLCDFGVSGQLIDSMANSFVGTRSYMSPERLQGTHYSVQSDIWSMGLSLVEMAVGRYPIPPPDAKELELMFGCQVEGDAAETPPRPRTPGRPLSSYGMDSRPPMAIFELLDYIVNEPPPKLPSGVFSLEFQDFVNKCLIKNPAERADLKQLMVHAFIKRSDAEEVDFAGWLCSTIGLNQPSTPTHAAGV
Assay: Inhibition of MEK1 by cascade assay method
Returns: string. Value is rule met if measured IC50 is below 50 nM, and rule not met if it is greater than or equal to it.

Example entries and their recorded answers appear below.
CC(=O)c1cc(C(=O)NOC(CO)CO)c(Nc2ccc(I)cc2F)n1C : rule met
CC(=O)c1cc(C(=O)NCCCO)c(Nc2ccc(I)cc2F)n1C : rule not met
CC(=O)n1cc(Nc2ccc(I)cc2F)c(C(=O)O)c1 : rule not met
CC(=O)n1cc(C(=O)O)c(Nc2ccc(I)cc2F)c1C : rule not met
CC(=O)c1cc(C(=O)NOCCCO)c(Nc2ccc(I)cc2F)n1C : rule met

Regarding `CC(=O)c1cc(C(=O)NOC[C@@H](O)CO)c(Nc2ccc(I)cc2F)n1C` , kindly confirm whether its IC50 is beneath 50 nM. rule met

Regarding `CC(=O)c1cc(C(=O)N2CC(O)C2)c(Nc2ccc(I)cc2F)n1C` , kindly confirm whether its IC50 is beneath 50 nM. rule met

Regarding `CC(=O)c1c(Cl)c(C(=O)NOC[C@H](O)CO)c(Nc2ccc(I)cc2F)n1C` , kindly confirm whether its IC50 is beneath 50 nM. rule met

---

Experiment: Mean residence time in rat at 5 mg/kg, po
Assay type: ADME, organism-based
Parameters: dose 5 mg/kg, route oral
Settings: in vivo
The entries below come with measured MRT values attached.
Write the answer as a number in h, unit excluded.

As a guide, the following entries are already answered.
CC(=O)c1cc(C(=O)NOC[C@H](O)CO)c(Nc2ccc(I)cc2F)n1C : 7.4
CC(=O)c1c(Cl)c(C(=O)NOC[C@H](O)CO)c(Nc2ccc(I)cc2F)n1C : 4.1

Query compound follows.
Which MRT is reported for this compound? `CC(=O)c1cc(C(=O)NOCCO)c(Nc2ccc(I)cc2F)n1C` 6.4

// provenance: ChEMBL document CHEMBL1177801
